Assign Percent Effect to each entry below.
# Test system: Trypanosoma brucei
# assayProtocol: Trypanosoma brucei 72 hour study
# Format: functional, organism-based
# Design: scale not given: in the data most compounds retested in dose-response had high values
# conditionDescription: 30.3 µM; […]
Hit rate of the full screen: of about 66,000 compounds, about 960 (1.5%) showed an effect of 50% or more. The sample holds strong results, similar compounds and a random draw of the others, so the mix is not that of the screen.
Express it in %; write the number only.

[ask] Assign Percent Effect to the following record: Cc1cc(C(=O)N2CCC3(CC2)C(=O)N(C)CCN3CC(C)C)c(C)o1.O=C(O)C(F)(F)F
[reply] 2.031

[ask] Assign Percent Effect to the following record: COC(=O)Cn1c(C)cc(=O)c2cc(F)ccc21
[reply] -56.52

[ask] Assign Percent Effect to the following record: Cc1nc(CN2CCCC2c2noc(C(C)C)n2)oc1C (stereo not drawn)
[reply] 12.42

[ask] Assign Percent Effect to the following record: Cc1cc(C[C@@H]2COC[C@H]2NCc2ccc(C(F)(F)F)cc2)on1.O=C(O)CC(O)(CC(=O)O)C(=O)O
[reply] 8.396

[ask] Assign Percent Effect to the following record: CC(=O)N1CCCCC12CCCN(Cc1ccco1)C2.O=C(O)C(F)(F)F (stereo not drawn)
[reply] 5.13

[ask] Assign Percent Effect to the following record: CNC(=O)[C@@H]1CCO[C@@H]2CCN(Cc3ccsc3)C[C@H]21.O=C(O)C(F)(F)F
[reply] -300.6

[ask] Assign Percent Effect to the following record: CCN1CCN(C)C2(CCN(Cc3ccsc3)CC2)C1=O.O=C(O)C(F)(F)F.O=C(O)C(F)(F)F
[reply] -66.4

[ask] Assign Percent Effect to the following record: CN(Cc1cccnc1)C1CC2(CCN(c3ncccn3)CC2)C1.O=C(O)C(F)(F)F.O=C(O)C(F)(F)F
[reply] -50.17

----------
# System: Trypanosoma brucei
# assayProtocol: Trypanosoma brucei 72 hour study
# Format: functional, organism-based
# Parameters: scale not given: in the data most compounds retested in dose-response had high values
# conditionDescription: 30 µM; 30.03 µM
About 960 (1.5%) of roughly 66,000 compounds showed an effect of 50% or more. Shown is part of a subset that was picked to be rich in strong results.
Assign Percent Effect to each entry below.
Express it in %; write the number only.

[ask] Recall the reported Percent Effect of CC(C)NC(=O)[C@H](C)NC(=O)N1CCN(c2ccc(Cl)cc2)CC1 when tested on Trypanosoma brucei.
[reply] 36.61

[ask] Recall the reported Percent Effect of CC(C)NC(=O)C(NC(=O)N1CCN(c2ccc(Cl)cc2)CC1)C(C)C (stereo not given) when tested on Trypanosoma brucei.
[reply] 55.67

[ask] Recall the reported Percent Effect of CC(C)[C@H](NC(=O)N1CCN(c2ccc(Cl)cc2)CC1)C(=O)NC1CC1 when tested on Trypanosoma brucei.
[reply] -23.38

[ask] Recall the reported Percent Effect of CC(C)NC(=O)[C@@H](NC(=O)N1CCN(c2ccc(Cl)cc2)CC1)C(C)C when tested on Trypanosoma brucei.
[reply] 72.09

[ask] Recall the reported Percent Effect of O=C(O)C(F)(F)F.O=S(=O)(C1CC1)N1CC[C@]2(C[C@@H](Oc3ncccc3F)CO2)C1 when tested on Trypanosoma brucei.
[reply] 13.6

----------
# System: Trypanosoma brucei
# assayProtocol: Trypanosoma brucei 72 hour study
# Format: functional, organism-based
# Set-up: scale not given: in the data most compounds retested in dose-response had high values
# conditionDescription: 30.3 µM; […]
Out of some 66,000 compounds screened, about 960 (1.5%) showed an effect of 50% or more. The full list was thinned out, with strong results kept by preference.
propertyName: Percent Effect (%)
Express it in %; write the number only.

[ask] Assign Percent Effect to the following record: Cc1cc(-c2cnc(N3CCCC(C)C3)nc2C(C)C)on1 (stereo unspecified)
[reply] -16.22

[ask] Assign Percent Effect to the following record: Cc1ccc(OC2(C(=O)N(C)Cc3ccoc3)CCNCC2)cc1
[reply] 91.09

[ask] Assign Percent Effect to the following record: CC[C@@H](C)[C@@H](N)C(=O)Nc1cccc(-c2cnc(N(C)CCO)nc2)c1
[reply] -10.78

[ask] Assign Percent Effect to the following record: CCN(CC)Cc1cc(=O)n2c(n1)CN(S(=O)(=O)C1CC1)CCC2.O=C(O)C(F)(F)F
[reply] -2.806

[ask] Assign Percent Effect to the following record: CN(C)C(=O)C1(Oc2ccc(Cl)cc2)CCNCC1
[reply] -28.66

[ask] Assign Percent Effect to the following record: Cn1nc(C(=O)N2CCOCC2)c2c1CN(CC1CC1)C2.O=C(O)C(F)(F)F.O=C(O)C(F)(F)F
[reply] -90.45

----------
# Test system: Trypanosoma brucei
# assayProtocol: Trypanosoma brucei 72 hour study
# Assay type: functional, organism-based
# Set-up: scale not given: in the data most compounds retested in dose-response had high values
# conditionDescription: 30.3 µM; […]
The campaign covered roughly 66,000 compounds. About 960 (1.5%) showed an effect of 50% or more. The list comes from a sample in which strong results are over-represented; it also holds close analogues and randomly drawn compounds.
Assign Percent Effect to each entry below.
Express it in %; write the number only.

[ask] Recall the reported Percent Effect of Cc1cccc(CNC2CCCc3c2cnn3Cc2ccccc2)c1.Cl (stereo not drawn) when tested on Trypanosoma brucei.
[reply] 96.36

[ask] Recall the reported Percent Effect of CC(=O)Nc1nc2c(s1)C1(CCN(C)CC1)Nc1ccccc1S2 when tested on Trypanosoma brucei.
[reply] 83.23

[ask] Recall the reported Percent Effect of CCCn1ncc(-c2ccnc(NC3CC(C)(C)NC(C)(C)C3)n2)c1C when tested on Trypanosoma brucei.
[reply] 25.37

[ask] Recall the reported Percent Effect of Cn1nc(C2CNCCO2)cc1CCOc1ccc(C(F)(F)F)cc1 (stereo not drawn) when tested on Trypanosoma brucei.
[reply] 20.05

[ask] Recall the reported Percent Effect of CNCC(=O)Nc1ccc(-c2cnc(NCCS(C)(=O)=O)nc2)cc1 when tested on Trypanosoma brucei.
[reply] -12.7

[ask] Recall the reported Percent Effect of Cc1ccccc1CS(=O)(=O)CC(=O)N(C)Cc1cccc(F)c1 when tested on Trypanosoma brucei.
[reply] -71.65

[ask] Recall the reported Percent Effect of COc1ccc(OCCc2cc(C3CNCCO3)nn2C)cc1 (stereo not drawn) when tested on Trypanosoma brucei.
[reply] 1.828

[ask] Recall the reported Percent Effect of CC(C)Nc1nc(N2CCCC2)nc2c1CN(C)CC2 when tested on Trypanosoma brucei.
[reply] -8.686

[ask] Recall the reported Percent Effect of O=C(NCC1CCOC1)N1CCN(Cc2ccc3c(c2)OCO3)CC1 (stereo not drawn) when tested on Trypanosoma brucei.
[reply] 1.586

[ask] Recall the reported Percent Effect of COCCC(=O)N1CCc2nc(N3CCOCC3)nc(NC(C)C)c2C1 when tested on Trypanosoma brucei.
[reply] -26.7

[ask] Recall the reported Percent Effect of CC(=O)Nc1nc2c(s1)C(C)(C)Nc1ccccc1S2 when tested on Trypanosoma brucei.
[reply] -17.63

[ask] Recall the reported Percent Effect of Cl.Cn1nc(C2CCCN(Cc3cc(F)ccc3F)C2)c2nccnc21 (stereo not drawn) when tested on Trypanosoma brucei.
[reply] 20.63

[ask] Recall the reported Percent Effect of Cl.c1ncc(-c2ccc(C3CNCCO3)nc2)cn1 (stereo not drawn) when tested on Trypanosoma brucei.
[reply] -18.07

[ask] Recall the reported Percent Effect of CC(C)Nc1nc(N2CCCC2)nc2c1CN(c1ncc(F)cn1)CC2 when tested on Trypanosoma brucei.
[reply] 99.94

[ask] Recall the reported Percent Effect of Cc1nc(C)n(CC2CN(Cc3cccc4ccccc34)CCO2)n1 (stereo not drawn) when tested on Trypanosoma brucei.
[reply] 20.23

[ask] Recall the reported Percent Effect of CCO[C@@H]1CO[C@@]2(CCN(Cc3ccc4c(c3)OCO4)C2)C1.O=C(O)C(F)(F)F when tested on Trypanosoma brucei.
[reply] 14.48

[ask] Recall the reported Percent Effect of Cc1ccc(CNC2CCCc3c2cnn3Cc2ccccc2)s1.Cl (stereo not drawn) when tested on Trypanosoma brucei.
[reply] 15.28

[ask] Recall the reported Percent Effect of CCCN1CCc2nc(N3CCOCC3)nc(NC(C)C)c2C1 when tested on Trypanosoma brucei.
[reply] -24.43

[ask] Recall the reported Percent Effect of COCC(=O)N1CCC2(CC1)CN(c1ncccn1)CCO2 when tested on Trypanosoma brucei.
[reply] -22.4

[ask] Recall the reported Percent Effect of CCC(C)N1CCc2nc(N3CCCC3)nc(NC(C)C)c2C1 (stereo not drawn) when tested on Trypanosoma brucei.
[reply] 80.67

[ask] Recall the reported Percent Effect of CN(C)c1cccc(CNC(=O)Nc2cc(C#N)ccc2Cl)n1 when tested on Trypanosoma brucei.
[reply] -223.5

[ask] Recall the reported Percent Effect of CC(=O)NCC1CCN(C(=O)c2c(C)[nH]c3ccc(Cl)cc23)CC1 when tested on Trypanosoma brucei.
[reply] 4.898

[ask] Recall the reported Percent Effect of Cn1ncc2c(N[C@@H]3C[C@@H]4CC[C@H]3C4)nc(-c3ccncc3)nc21 when tested on Trypanosoma brucei.
[reply] -15.13

[ask] Recall the reported Percent Effect of COc1cc(F)cc(NC(=O)NCc2cccc(N(C)C)n2)c1 when tested on Trypanosoma brucei.
[reply] -613

[ask] Recall the reported Percent Effect of Cc1nc(CN(C)CC2CCCN2c2cccnn2)nc2ccccc12 (stereo not drawn) when tested on Trypanosoma brucei.
[reply] 101.1

[ask] Recall the reported Percent Effect of CCCn1ncc(-c2ccnc(N[C@@H]3C[C@@H]4CC[C@H]3C4)n2)c1C when tested on Trypanosoma brucei.
[reply] 89.15

[ask] Recall the reported Percent Effect of Cl.Cl.Cn1nc(C2CNCCO2)cc1CCOc1ccc(Cl)cc1 (stereo not drawn) when tested on Trypanosoma brucei.
[reply] 53.46

[ask] Recall the reported Percent Effect of O=C(Cc1cccc(F)c1)N1CCn2cc(Cn3cccn3)nc2C1.O=C(O)C(F)(F)F when tested on Trypanosoma brucei.
[reply] -215.4

[ask] Recall the reported Percent Effect of CN(C)C(=O)c1cc2c(nc1NCC1CC1)CCNCC2 when tested on Trypanosoma brucei.
[reply] -109.7

[ask] Recall the reported Percent Effect of Cc1nc(C)n(CC2CN(Cc3ccccc3OC(C)C)CCO2)n1 (stereo not drawn) when tested on Trypanosoma brucei.
[reply] 101

[ask] Recall the reported Percent Effect of CCn1cc(C(=O)N2C[C@H]3C[C@H](Oc4ccccc4)C[C@H]3C2)cn1 when tested on Trypanosoma brucei.
[reply] 7.287

[ask] Recall the reported Percent Effect of O=C1NCCN1C1CCN(Cc2nc(-c3ccccc3)no2)CC1 when tested on Trypanosoma brucei.
[reply] 2.472

[ask] Recall the reported Percent Effect of Cl.Clc1ccc(-c2ccc(C3CNCCO3)nc2)cc1 (stereo not drawn) when tested on Trypanosoma brucei.
[reply] 98.64

[ask] Recall the reported Percent Effect of CN(Cc1cccc(F)c1)C(=O)CS(=O)(=O)Cc1c(Cl)cccc1Cl when tested on Trypanosoma brucei.
[reply] 83.04

[ask] Recall the reported Percent Effect of CN(C)c1ncc(-c2ccc(F)cc2)c(C2CNCCO2)n1.Cl (stereo not drawn) when tested on Trypanosoma brucei.
[reply] 29.73

[ask] Recall the reported Percent Effect of CN(Cc1cccc(F)c1)C(=O)CS(=O)(=O)Cc1ccc(Cl)c(Cl)c1 when tested on Trypanosoma brucei.
[reply] 45.42

[ask] Recall the reported Percent Effect of CN(Cc1ccco1)C[C@H]1OC[C@@H]2CN(c3ncc(F)cn3)CC[C@@H]21.O=C(O)C(F)(F)F.O=C(O)C(F)(F)F when tested on Trypanosoma brucei.
[reply] -14.08

[ask] Recall the reported Percent Effect of CNC(=O)c1cc2c(nc1N(C)C)CCN(c1ncc(F)cn1)CC2.O=C(O)C(F)(F)F when tested on Trypanosoma brucei.
[reply] -8.544
